The values you see were collected from PubChem BioAssay AID248.

# Test system: L1210 leukemia ip in BDF1 mice, survival T/C
# measurement_notes: NCI In Vivo Anticancer Drug Screen. Data for tumor model L1210 Leukemia (intraperitoneal) in B6D2F1 (BDF1) mice
# assay_conditions: endpoint: mean survival time; dose: 100.0 mg/kg/injection; schedule: Q01DX009 (ip); vehicle: saline; higher = longer survival
Inconclusive results and toxic doses are left out.
For each record, write down the corresponding T/C.

Data request, read-out T/C, for CC1=NC(C(=O)O)C(=O)O1 (centres undefined)
98 % of control

Likewise for "O=C(c1ccccc1)C1(Br)CCCCC1" ?
95 % of control

Likewise for CC(NC(=O)Cc1ccccc1)C(=O)NN (centres undefined) ?
100 % of control

Likewise for "COc1cc([N+](=O)[O-])c(C)cc1NCc1ccc(OC)c(OC)c1" ?
94 % of control

Likewise for CC(CS(=O)(=O)O)N1CCN(CCO)CC1 (centres undefined) ?
101 % of control

Likewise for Nc1nc2c(ncn2C2OC(COP(=O)(O)O)C(O)C2O)c(=O)[nH]1 (centres undefined) ?
101 % of control

Likewise for "CC1=CC(=O)C=C(C(C)C)/C1=C(\c1ccccc1C(=O)O)c1c(C)cc(OP(=O)(O)O)cc1C(C)C" ?
103 % of control

Likewise for O=C1c2ccccc2-c2nc3cncnc3nc21 (tested in a mixture with another compound) ?
101 % of control

Likewise for "Cc1ccc(C)c(NC(=O)N2CCN(C)CC2)c1" ?
97 % of control

Likewise for O=C(O)CCC1CCC(=O)OC1=O (centres undefined) ?
101 % of control

Likewise for CC(=O)Nc1cc2c(cc1[N+](=O)[O-])-c1ccccc1C2O (centres undefined) ?
102 % of control

Likewise for "CCCNCCN" ?
102 % of control

Likewise for "Cc1ccc(S(=O)(=O)N(CCC(=N)N)C(C)C)cc1" ?
96 % of control

Likewise for O=C(/C=C/c1cccnc1)NCC(O)CO (centres undefined) ?
101 % of control

Likewise for "CN(N)C(=N)N" ?
102 % of control

Likewise for O=C1OCC(O)C(O)C(O)C(O)C1O (centres undefined) ?
102 % of control

Likewise for "CC/C(C)=N\NC(=O)c1cccnc1" ?
110 % of control

Likewise for "COc1ccc(CNCC(=O)O)cc1" ?
100 % of control

Likewise for CCC(=O)OC(CC=C(C)C)(c1ccccc1)C(C)CN(C)C (centres undefined) ?
100 % of control

Likewise for "CN(N)Cc1cccc(O)c1" ?
104 % of control

Likewise for "CC(=O)Nc1ccc(/C=N\NC(=O)CCCC(=O)N/N=C/c2ccc(NC(C)=O)cc2)cc1" ?
91 % of control

Likewise for "CN(C)/C=N/NC(=O)c1ccncc1" ?
94 % of control

Likewise for CCN(C)CCC(CNC(=O)CN(CC)CC)(c1cccc2ccccc12)C(C)C (centres undefined) ?
91 % of control

Likewise for CC1(C)C2C=CC1C(CO)(CO)C2 (centres undefined) ?
105 % of control

Likewise for "O=C1/C(=C\c2cccc3ccccc23)COC/C1=C/c1cccc2ccccc12" ?
93 % of control

Likewise for "CCCCCCCCC(=O)CCCCC" ?
92 % of control

Likewise for OC1COC(O)C(O)C1O (centres undefined) ?
98 % of control

Likewise for "NC(=O)CNCCS(=O)(=O)O" ?
101 % of control

Likewise for "CN(C)C(=O)c1cccc(N)c1" ?
101 % of control

Likewise for "CCCCCCC(=O)NC1=C(N2CC2)C(=O)C(NC(=O)CCCCCC)=C(N2CC2)C1=O" ?
123 % of control

Likewise for CCC[N+]12CC=C3COC(=O)C(C)(O)C(C)(O)C(C)C(=O)OC(CC1)C32 (centres undefined) ?
95 % of control

Likewise for "O=C(CCCC(=O)N/N=C/c1cc(Br)ccc1O)N/N=C\c1cc(Br)ccc1O" ?
89 % of control

Likewise for "O=C(Nc1ccc(Cl)cc1Cl)Nc1cc(C(F)(F)F)ccc1Cl" ?
98 % of control

Likewise for "CC(C)(C)S(=O)(=O)CCCCS(=O)(=O)C(C)(C)C" ?
104 % of control

Likewise for "O=C1OC(=C(c2ccccc2)c2ccccc2)c2ccccc21" ?
100 % of control

Likewise for "CCN(CC)c1ccc(Cc2ccc3c(c2O)C(=O)c2c(O)cccc2C3=O)cc1" ?
94 % of control

Likewise for C=C(C)C1CC=C(C)CC1 (centres undefined) ?
91 % of control

Likewise for "[O-][N+]1=CCCC1" ?
89 % of control

Likewise for "O=S(=O)(O)c1cc(O)c2cc(Nc3ccccc3)ccc2c1" ?
93 % of control

###

# System: L1210 leukemia ip in BDF1 mice, survival T/C
# measurement_notes: NCI In Vivo Anticancer Drug Screen. Data for tumor model L1210 Leukemia (intraperitoneal) in B6D2F1 (BDF1) mice
# assay_conditions: endpoint: mean survival time; dose: 200.0 mg/kg/injection; schedule: Q01DX001 (ip); vehicle: saline; higher = longer survival
Toxic doses and inconclusive results are not listed.
For each record, write down the corresponding T/C.

Data request, read-out T/C, for "C(=N\N1CCN(/N=C/c2ccc(-c3ccccc3)cc2)CC1)/c1ccc(-c2ccccc2)cc1"
97 % of control

Likewise for OC1C2CCN(CC2)C1CN1CCOCC1 (configuration not stated) ?
108 % of control

Likewise for COC(CN)C(Cl)(Cl)Cl (configuration not stated) ?
107 % of control

Likewise for "CC1=NN(c2ccccc2)C(=O)C1" ?
90 % of control

Likewise for "Clc1cc(/C=C/c2ccccc2)c2ccccc2n1" ?
105 % of control

Likewise for "CCN(CC)CCN=Cc1ccccc1OC" ?
101 % of control

Likewise for "Cc1cc2nc3[nH]c4c(Cl)cc(Cl)cc4c3nc2cc1C" ?
89 % of control

Likewise for CCC(=O)OCC1OC(n2cc(F)c(=O)[nH]c2=O)CC1OC(=O)CC (configuration not stated) ?
101 % of control

Likewise for COc1ccc(C2(C)C(C#N)C(=O)NC(=O)C2C#N)cc1 (configuration not stated) ?
122 % of control

Likewise for "O=C(O)CCC(=O)NCCNC(=O)CC(=O)O" ?
105 % of control

Likewise for COC(=O)C1(C)COP(=O)(Nc2ccc(OC)cc2)OC1 (configuration not stated) ?
89 % of control

Likewise for O=C1OCC2Cc3cc4c(cc3C(c3ccc5c(c3)OCO5)=C12)OCO4 (configuration not stated) ?
109 % of control

###

# System: L1210 leukemia ip in BDF1 mice, survival T/C
# measurement_notes: NCI In Vivo Anticancer Drug Screen. Data for tumor model L1210 Leukemia (intraperitoneal) in B6D2F1 (BDF1) mice
# assay_conditions: endpoint: mean survival time; dose: 25.0 mg/kg/injection; schedule: Q04DX002 (ip); vehicle: saline with Tween-80; higher = longer survival
Toxic doses and inconclusive results are not listed.
measured_endpoint: T/C

Test system L1210 leukemia ip in BDF1 mice, survival T/C; read-out T/C; what value for "O=C1Nc2ccccc2/C1=C/Cl" ?
103 % of control

Likewise for "CCOC(=O)C(=O)c1c2cn(O)nc(OC)c-2nc1[N+](=O)[O-]" ?
96 % of control

Likewise for CC(=O)SCC(C)SC(C)=O (centres undefined) ?
98 % of control

Likewise for "CCCC[S][Pb]([CH2]C)([CH2]C)[CH2]C" ?
96 % of control

###

# Test system: L1210 leukemia ip in BDF1 mice, survival T/C
# measurement_notes: NCI In Vivo Anticancer Drug Screen. Data for tumor model L1210 Leukemia (intraperitoneal) in B6D2F1 (BDF1) mice
# assay_conditions: endpoint: mean survival time; dose: 50.0 mg/kg/injection; schedule: Q04DX002 (ip); vehicle: Klucel (hydroxypropylcellulose) (HPC); higher = longer survival
Toxic doses and inconclusive results are not listed.
measured_endpoint: T/C

Data request, read-out T/C, for "Cc1cc(C)c2c(c1)C/C2=N/N=C1/Cc2cc(C)cc(C)c21"
120 % of control

Likewise for CC1=NC(C)CNC(C)(C)CC(C)=NC(C)CNC(C)(C)C1 (configuration not stated) ?
94 % of control

Likewise for "Cc1ccc(S/N=C\c2ccccc2O)cc1" ?
93 % of control

Likewise for "Oc1ccccc1C1=NCCN1" ?
102 % of control

Likewise for CC(=O)OC1CCCCC1NC(=O)NCCCl (configuration not stated) ?
101 % of control

Likewise for "O=C(O)c1cccc(Cl)c1.[Ni]" ?
100 % of control

Likewise for O=[N+]([O-])c1ccc(N/N=C2\CCC3CC23)c([N+](=O)[O-])c1 (configuration not stated) ?
102 % of control

Likewise for "Cc1cc2c([N+](=O)[O-])c3cccnn3c2nn1" ?
114 % of control

Likewise for "Nc1nc(N)c2[nH]c(CCCc3ccccc3)nc2n1" ?
98 % of control

Likewise for O=S1(=O)CC2(N3CCCC3)C3c4ccccc4C(c4ccccc43)C21 (configuration not stated) ?
102 % of control

Likewise for O=C1C(c2ccccc2)CS(=O)(=O)CC1c1ccccc1 (configuration not stated) ?
101 % of control

Likewise for COC(=O)C1C2CC3c4[nH]c5cc(OC)ccc5c4CCN3CC2CC(O)C1OC (configuration not stated) ?
96 % of control
